- target-desc: AGO2 L192P (Homo sapiens, UniProt Q9UKV8 1-859, L192P;S387D;S824A;S828D;S831D;S834A)
- Sequence (Q9UKV8 whole entry L192P/S387D/S824A/S828D/S831D/S834A): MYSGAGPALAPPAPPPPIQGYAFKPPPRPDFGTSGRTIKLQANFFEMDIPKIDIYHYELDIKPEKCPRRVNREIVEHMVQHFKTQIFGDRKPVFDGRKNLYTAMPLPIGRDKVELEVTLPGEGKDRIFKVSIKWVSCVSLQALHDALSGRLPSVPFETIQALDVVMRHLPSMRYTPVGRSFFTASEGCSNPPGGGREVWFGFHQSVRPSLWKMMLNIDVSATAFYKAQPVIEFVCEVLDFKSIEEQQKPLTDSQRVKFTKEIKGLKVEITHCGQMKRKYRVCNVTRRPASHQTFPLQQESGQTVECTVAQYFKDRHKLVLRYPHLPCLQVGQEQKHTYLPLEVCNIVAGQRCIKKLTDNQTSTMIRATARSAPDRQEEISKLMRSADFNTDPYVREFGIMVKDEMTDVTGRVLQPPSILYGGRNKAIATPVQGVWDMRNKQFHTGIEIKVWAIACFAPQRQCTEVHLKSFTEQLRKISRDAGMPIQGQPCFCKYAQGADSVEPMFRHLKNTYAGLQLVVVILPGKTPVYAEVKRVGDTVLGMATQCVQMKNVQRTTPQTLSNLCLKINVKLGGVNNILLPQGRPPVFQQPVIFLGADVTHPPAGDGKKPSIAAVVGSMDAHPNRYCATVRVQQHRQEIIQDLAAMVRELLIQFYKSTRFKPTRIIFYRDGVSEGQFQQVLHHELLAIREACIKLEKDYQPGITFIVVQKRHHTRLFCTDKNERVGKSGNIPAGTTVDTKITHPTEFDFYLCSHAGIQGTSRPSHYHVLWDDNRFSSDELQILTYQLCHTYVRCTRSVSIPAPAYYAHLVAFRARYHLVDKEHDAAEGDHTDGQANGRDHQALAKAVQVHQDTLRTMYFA
- protocol-description: RNA Bind-n-Seq (nitrocellulose filter binding and sequencing); miR-122 guide loaded in AGO2; 60 min incubation; 30 mM Tris pH 8.0, 100 mM potassium acetate, 2 mM magnesium acetate, 0.5 mM TCEP, 0.005% NP-40, 0.01 mg/ml yeast tRNA; 3 nM AGO2-miR-122, 100 nM RNA library; 60; high values mean tight binding
- particulars: protein: recombinant; tags: His6 (N-terminal, pFastBac HTA)
measured-property: binding signal

QUERY: Give the reported value of binding signal for this record: GCACCCCA (ssRNA, constant regions annealed to DNA blockers; guide miR-122 5' phosphate) RNA 1: GAGUUCUACAGUCCGACGAUCCCAACGCACCCCACACCUGGAAUUCUCGGGUGCCAA RNA 2: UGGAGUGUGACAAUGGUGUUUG DNA 1: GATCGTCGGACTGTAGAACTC DNA 2: TTGGCACCCGAGAATTCCA
RESULT: 0.6 fold enrichment over input

QUERY: Please supply the value of reported binding signal for the item ACATCTTA (ssRNA, constant regions annealed to DNA blockers; guide miR-122 5' phosphate) RNA 1: GAGUUCUACAGUCCGACGAUCCCAACACAUCUUACACCUGGAAUUCUCGGGUGCCAA RNA 2: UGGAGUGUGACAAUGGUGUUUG DNA 1: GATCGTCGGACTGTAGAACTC DNA 2: TTGGCACCCGAGAATTCCA
RESULT: 0.519 fold enrichment over input

QUERY: Given ACGTTTTG (ssRNA, constant regions annealed to DNA blockers; guide miR-122 5' phosphate) RNA 1: GAGUUCUACAGUCCGACGAUCCCAACACGUUUUGCACCUGGAAUUCUCGGGUGCCAA RNA 2: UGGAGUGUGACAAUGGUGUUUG DNA 1: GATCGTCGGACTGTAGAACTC DNA 2: TTGGCACCCGAGAATTCCA , respond with its binding signal.
RESULT: 0.342 fold enrichment over input

QUERY: Return binding signal (reported value) for this binder: ACACCTTA (ssRNA, constant regions annealed to DNA blockers; guide miR-122 5' phosphate) RNA 1: GAGUUCUACAGUCCGACGAUCCCAACACACCUUACACCUGGAAUUCUCGGGUGCCAA RNA 2: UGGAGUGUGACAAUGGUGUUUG DNA 1: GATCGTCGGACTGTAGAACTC DNA 2: TTGGCACCCGAGAATTCCA
RESULT: 0.755 fold enrichment over input

QUERY: Output binding signal of GTGTCCCA (ssRNA, constant regions annealed to DNA blockers; guide miR-122 5' phosphate) RNA 1: GAGUUCUACAGUCCGACGAUCCCAACGUGUCCCACACCUGGAAUUCUCGGGUGCCAA RNA 2: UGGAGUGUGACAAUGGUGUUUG DNA 1: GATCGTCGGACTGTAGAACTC DNA 2: TTGGCACCCGAGAATTCCA
RESULT: 0.479 fold enrichment over input
